test: Cmax in Sprague-Dawley rat at 20 mg/kg, po measured at 0.25 hrs by LC-MS/MS analysis; format: ADME, organism-based; set-up: dose 20 mg/kg, route oral; settings: in vivo
measure-name: Cmax (ng/mL)
Answers are plain numbers, in ng/mL.

Prompt: Name the recorded Cmax of the compound listed here: "O=C(C[C@@H](CC1CCCC1)C(=O)N1CC2(CC2)C[C@H]1c1nc(-c2ccc(F)cc2C(F)(F)F)no1)NO"
Completion: 617

----------
assay: Selectivity index, ratio of IC50 for human MCF10A cells assessed as reduction in cell growth measured after 48 hrs by CCK8 assay to IC50 for human HCT116 cells assessed as reduction in cell growth measured after 48 hrs by CCK8; format: toxicity; conditions: MCF10A cells versus HCT116 cells, read-out: Ratio IC50
measure-name: selectivity ratio at 48 h
One number for each entry.

Prompt: Name the recorded selectivity ratio at 48 h of the compound listed here: "O=C(C[C@@H](CC1CCCC1)C(=O)N1CC2(CC2)C[C@H]1c1nc(-c2ccc(F)cc2C(F)(F)F)no1)NO"
Completion: 9

Numbers sourced from ChEMBL document CHEMBL4616720.
